- Tested on: NCI-H650
- assay_summary: relative viability (nuclei count vs DMSO), 5 days (fraction); higher = more cells survive
- setup_conditions: first compound 0.08 µM
Recorded relative viability by entry
Please reply with the value in numeric form only.

# annotated cases, reported relative viability shown
* CCCCCCCCCCCC1=C(O)C(=O)C=C(O)C1=O [Embelin] + CC(=O)c1c(C)c2cnc(Nc3ccc(N4CCNCC4)cn3)nc2n(C2CCCC2)c1=O [Palbociclib] (partner 0.5 µM) | 0.272
* CCCCCCCCCCCC1=C(O)C(=O)C=C(O)C1=O [Embelin] + O=C(CCCCCCC(=O)Nc1ccccc1)NO [Vorinostat] (partner 1 µM) | 0.393
* CCCCCCCCCCCC1=C(O)C(=O)C=C(O)C1=O [Embelin] + Cc1nc(NC(=O)N2CCC[C@H]2C(N)=O)sc1-c1ccnc(C(C)(C)C(F)(F)F)c1 [Alpelisib] (partner 2 µM) | 1.14
* CCCCCCCCCCCC1=C(O)C(=O)C=C(O)C1=O [Embelin] + C[C@@H](Oc1cc(-c2cnn(C3CCNCC3)c2)cnc1N)c1c(Cl)ccc(F)c1Cl [Crizotinib] (partner 1 µM) | 0.772
* CCCCCCCCCCCC1=C(O)C(=O)C=C(O)C1=O [Embelin] + N=C(N)NC(=N)NCCc1ccccc1 [Phenformin] (partner 250 µM) | 0.436

Consider the record given below.
relative viability for NCI-H650 with input CCCCCCCCCCCC1=C(O)C(=O)C=C(O)C1=O [Embelin] + CC(=O)Nc1cccc(-n2c(=O)n(C3CC3)c(=O)c3c(Nc4ccc(I)cc4F)n(C)c(=O)c(C)c32)c1 [Trametinib] (partner 0.02 µM) equals 0.977

###

- System: HCC-78
- assay_summary: relative viability (nuclei count vs DMSO), 5 days (fraction); higher = more cells survive
- setup_conditions: first compound 0.04 µM
Lab note - cut at 0.5 for relative viability: condition met if strictly below, condition not met if not.

Known results for compounds:
- C[C@@H]1CN(CC(=O)Nc2ccc3c(c2)Cc2cccc(-c4cc(=O)cc(N5CCOCC5)o4)c2S3)C[C@H](C)O1 + CC(=O)Nc1cccc(-n2c(=O)n(C3CC3)c(=O)c3c(Nc4ccc(I)cc4F)n(C)c(=O)c(C)c32)c1 [Trametinib] (partner 0.02 µM): condition not met
- COc1cc(N2CCC(C(N)=O)CC2)ccc1Nc1nc(N)c(Cl)c(Nc2ccccc2S(=O)(=O)C(C)C)n1 [HG-5-88-01] + C[C@@H](Oc1cc(-c2cnn(C3CCNCC3)c2)cnc1N)c1c(Cl)ccc(F)c1Cl [Crizotinib] (partner 1 µM): condition met

API: query returns whether the compound falls strictly under 0.5 in relative viability. Query: Clc1ccc(Nc2nnc(Cc3ccncc3)c3ccccc23)cc1 [Vatalanib] + Nc1nc2[nH]cc(CCc3ccc(C(=O)N[C@@H](CCC(=O)O)C(=O)O)cc3)c2c(=O)[nH]1 [Pemetrexed] (partner 0.2 µM)
condition not met

API: query returns whether the compound falls strictly under 0.5 in relative viability. Query: C[C@@H]1CN(CC(=O)Nc2ccc3c(c2)Cc2cccc(-c4cc(=O)cc(N5CCOCC5)o4)c2S3)C[C@H](C)O1 + N=C(N)NC(=N)NCCc1ccccc1 [Phenformin] (partner 250 µM)
condition not met

API: query returns whether the compound falls strictly under 0.5 in relative viability. Query: C[C@@H]1CN(CC(=O)Nc2ccc3c(c2)Cc2cccc(-c4cc(=O)cc(N5CCOCC5)o4)c2S3)C[C@H](C)O1 + CC(=O)c1c(C)c2cnc(Nc3ccc(N4CCNCC4)cn3)nc2n(C2CCCC2)c1=O [Palbociclib] (partner 0.5 µM)
condition met

API: query returns whether the compound falls strictly under 0.5 in relative viability. Query: Clc1ccc(Nc2nnc(Cc3ccncc3)c3ccccc23)cc1 [Vatalanib] + CC(C)C[C@H](NC(=O)[C@H](Cc1ccccc1)NC(=O)c1cnccn1)B(O)O [Bortezomib] (partner 0.002 µM)
condition met

API: query returns whether the compound falls strictly under 0.5 in relative viability. Query: COc1cc(N2CCC(C(N)=O)CC2)ccc1Nc1nc(N)c(Cl)c(Nc2ccccc2S(=O)(=O)C(C)C)n1 [HG-5-88-01] + Cc1nc(Nc2ncc(C(=O)Nc3c(C)cccc3Cl)s2)cc(N2CCN(CCO)CC2)n1 [Dasatinib] (partner 0.075 µM)
condition met

API: query returns whether the compound falls strictly under 0.5 in relative viability. Query: Clc1ccc(Nc2nnc(Cc3ccncc3)c3ccccc23)cc1 [Vatalanib] + CS(=O)(=O)N1CCN(Cc2cc3nc(-c4cccc5[nH]ncc45)nc(N4CCOCC4)c3s2)CC1 [Pictilisib] (partner 1 µM)
condition met

###

- System: EPLC-272H
- assay_summary: relative viability (nuclei count vs DMSO), 5 days (fraction); higher = more cells survive
- setup_conditions: first compound 0.03162 µM
assay_endpoint: relative viability
Please reply with the value in numeric form only.

- CC(C)Oc1cc(Nc2nc(N[C@@H](C)c3ccc(F)cn3)ncc2Cl)n[nH]1 [AZ23] + Nc1ncn([C@H]2C[C@H](O)[C@@H](CO)O2)c(=O)n1 [Decitabine] (partner 2 µM): 0.344
- CC(C)Oc1cc(Nc2nc(N[C@@H](C)c3ccc(F)cn3)ncc2Cl)n[nH]1 [AZ23] + CS(=O)(=O)CCNCc1ccc(-c2ccc3ncnc(Nc4ccc(OCc5cccc(F)c5)c(Cl)c4)c3c2)o1 [Lapatinib] (partner 2 µM): 1.16
- CC(C)Oc1cc(Nc2nc(N[C@@H](C)c3ccc(F)cn3)ncc2Cl)n[nH]1 [AZ23] + NC(=O)Nc1cc(-c2cccc(F)c2)sc1C(=O)N[C@H]1CCCNC1 [AZD7762] (partner 0.2 µM): 0.254

Briefly, relative viability measured for CC(C)Oc1cc(Nc2nc(N[C@@H](C)c3ccc(F)cn3)ncc2Cl)n[nH]1 [AZ23] + CC(C)C[C@H](NC(=O)[C@H](Cc1ccccc1)NC(=O)c1cnccn1)B(O)O [Bortezomib] (partner 0.002 µM) : 1.02

Briefly, relative viability measured for CC(C)Oc1cc(Nc2nc(N[C@@H](C)c3ccc(F)cn3)ncc2Cl)n[nH]1 [AZ23] + Cc1nc(NC(=O)N2CCC[C@H]2C(N)=O)sc1-c1ccnc(C(C)(C)C(F)(F)F)c1 [Alpelisib] (partner 2 µM) : 1.18

Briefly, relative viability measured for CC(C)Oc1cc(Nc2nc(N[C@@H](C)c3ccc(F)cn3)ncc2Cl)n[nH]1 [AZ23] + Cc1nc(Nc2ncc(C(=O)Nc3c(C)cccc3Cl)s2)cc(N2CCN(CCO)CC2)n1 [Dasatinib] (partner 0.075 µM) : 0.305

###

Recorded relative viability by entry
- Tested on: NCI-H1792
- assay_summary: relative viability (nuclei count vs DMSO), 5 days (fraction); higher = more cells survive
- setup_conditions: first compound 0.1265 µM
Please reply with the value in numeric form only.

# annotated cases, reported relative viability shown
* C[C@@H]1CN(CC(=O)Nc2ccc3c(c2)Cc2cccc(-c4cc(=O)cc(N5CCOCC5)o4)c2S3)C[C@H](C)O1 + CC(=O)c1c(C)c2cnc(Nc3ccc(N4CCNCC4)cn3)nc2n(C2CCCC2)c1=O [Palbociclib] (partner 0.5 µM) | 0.594
* Clc1ccc(Nc2nnc(Cc3ccncc3)c3ccccc23)cc1 [Vatalanib] + CC1(C)CCC(c2ccc(Cl)cc2)=C(CN2CCN(c3ccc(C(=O)NS(=O)(=O)c4ccc(N[C@H](CCN5CCOCC5)CSc5ccccc5)c(S(=O)(=O)C(F)(F)F)c4)cc3)CC2)C1 [Navitoclax] (partner 0.5 µM) | 0.611

Consider the record given below.
Briefly, relative viability measured for Clc1ccc(Nc2nnc(Cc3ccncc3)c3ccccc23)cc1 [Vatalanib] + NC(=O)Nc1cc(-c2cccc(F)c2)sc1C(=O)N[C@H]1CCCNC1 [AZD7762] (partner 0.2 µM) : 0.663

###

- Test system: CAL-12T
- assay_summary: relative viability (nuclei count vs DMSO), 5 days (fraction); higher = more cells survive
- setup_conditions: first compound 1.265 µM
assay_endpoint: relative viability

- Clc1ccc(Nc2nnc(Cc3ccncc3)c3ccccc23)cc1 [Vatalanib] + O=C(c1cc(Cc2n[nH]c(=O)c3ccccc23)ccc1F)N1CCN(C(=O)C2CC2)CC1 [Olaparib] (partner 8 µM): 0.697
- COc1cc(N2CCC(C(N)=O)CC2)ccc1Nc1nc(N)c(Cl)c(Nc2ccccc2S(=O)(=O)C(C)C)n1 [HG-5-88-01] + O=C(CCCCCCC(=O)Nc1ccccc1)NO [Vorinostat] (partner 1 µM): 0.811
- Clc1ccc(Nc2nnc(Cc3ccncc3)c3ccccc23)cc1 [Vatalanib] + CCNC(=O)c1noc(-c2cc(C(C)C)c(O)cc2O)c1-c1ccc(CN2CCOCC2)cc1 [Luminespib] (partner 0.01 µM): 0.255
- COc1cc(N2CCC(C(N)=O)CC2)ccc1Nc1nc(N)c(Cl)c(Nc2ccccc2S(=O)(=O)C(C)C)n1 [HG-5-88-01] + C[C@@H](Oc1cc(-c2cnn(C3CCNCC3)c2)cnc1N)c1c(Cl)ccc(F)c1Cl [Crizotinib] (partner 1 µM): 0.432

Consider the record given below.
Briefly, relative viability measured for Clc1ccc(Nc2nnc(Cc3ccncc3)c3ccccc23)cc1 [Vatalanib] + Cc1nc(NC(=O)N2CCC[C@H]2C(N)=O)sc1-c1ccnc(C(C)(C)C(F)(F)F)c1 [Alpelisib] (partner 2 µM) : 0.987
